system: Carrageenan-stimulated inflammation on the rear left footpad of the rat; test: Carrageenan-induced footpad edema in rats (Edema Rate E% and Inhibition Rate I%); format: in vivo, Wistar Albino Rats; conditions: sc, 1 h, dose 10 mg/kg, 1 hr, vs control group edema rate, read-out: percentage inhibition rate (I %)
Measured Attribute: inhibition in vivo at 10 mg/kg (%)
Give bare numbers, in %.

Quick one: give me inhibition in vivo at 10 mg/kg for each item below, same order please.
1. Cc1cc(C(=O)Nc2cccc(Cl)c2)no1
2. Cc1cc(C(=O)Nc2cccc(C(F)(F)F)c2)no1
3. Cc1cc(C(=O)Nc2ccc(Cl)cc2)no1
4. Cc1cc(C(=O)Nc2ccc(C(F)(F)F)cc2)no1
5. COc1cc(NC(=O)c2cc(C)on2)cc(OC)c1OC
6. Cc1cc(C(=O)Nc2ccccc2)no1

Out:
1: 64.4; 2: 26; 3: 70.2; 4: 46.2; 5: 6.7; 6: 62.5

====

System: Carrageenan-stimulated inflammation on the rear left footpad of the rat
Test: Carrageenan-induced footpad edema in rats (Edema Rate E% and Inhibition Rate I%)
Assay type: in vivo, Wistar Albino Rats
Conditions: sc, 1 h, dose 10 mg/kg, 1 hr, vs control group edema rate, read-out: percentage inhibition rate (I %)
Procedure: Wistar Albino Rats of 4 to 6 weeks old with weights of 100-150 g were used for the studies. Weigh 30 mg of λ-carrageenan (Sigma Chemical) powder; add 3 mL of saline to make the 1% carrageenan solution. […] In the present invention, Carrageenan was used to stimulate the inflammation on the rear left footpad of the rat. The inflammation on the left footpad of each rat was measured for rats with and without treatment. […] Measurements of the inflamation at pre-determined time points were made. […]
Measured Attribute: inhibition in vivo at 10 mg/kg (%)
One number for each entry, in %.

Completed entries (count: 2):
CC(C)Cc1ccc(C(C)C(=O)O)cc1 (stereo not shown) [Ibuprofen, reference compound]	9.1
Cc1cc(C(=O)Nc2ccccc2Cl)no1	80.1

Quick one: give me inhibition in vivo at 10 mg/kg for each item below, same order please.
1. COc1ccc(NC(=O)c2cc(C)on2)cc1
2. Cc1cc(C(=O)Nc2ccc(Cl)cc2Cl)no1
3. Cc1cc(C(=O)Nc2ccc(C(=O)O)cc2)no1
4. Cc1oncc1C(=O)Nc1ccc(C(F)(F)F)cc1 [Leflunomide]

Out:
1: 24; 2: 79.3; 3: 50.5; 4: 28.4

In: Sample "Cc1cc(C(=O)Nc2ccc(F)cc2)no1" — what was its inhibition in vivo at 10 mg/kg?
Out: 46.2
